Assay: Solubility of compound of Chemical Formula 1 in various solvents
Assay type: physicochemical
Settings: organic solvent or mixture; Isopropanol (IPA), 25° C.; read-out: Solubility
OBSERVATION_TYPE: solubility

Looking up O=S1(=O)CCN(Cc2cc(NC3CCOCC3)c3[nH]c(-c4ccccc4)cc3c2)CC1 , I see its solubility listed as 320 µg/mL

----------
Test: Solubility test of sulfate (Crystalline form III) in various solvents
Format: physicochemical
Settings: organic solvent or mixture, thermodynamic from solid; MeOH, 50° C.; read-out: Solubility
OBSERVATION_TYPE: solubility

Looking up O=S1(=O)CCN(Cc2cc(NC3CCOCC3)c3[nH]c(-c4ccccc4)cc3c2)CC1 [Sulfate] , I see its solubility listed as 2000 to 3000 µg/mL
